System: SK-MEL-28 melanoma
Assay: NCI-60 one-dose screen, 48 h (100 = growth as untreated, 0 = no growth, -100 = all killed)
Settings: 10 µM unless noted
About 83,000 compounds went through this panel and 20% of them were active in at least one assay; those are over-represented in the sample as a whole. Calls of active or inactive are those of the source. Rule for the calls: active = growth percent below 10; inactive = the rest.
Item-by-item account of growth

{"columns": ["molecule", "growth"],
 "data": [
  ["COc1cc2c(cc1OCCCCN1CCN(C(=S)SCCC(C#N)(c3ccccc3)c3ccccc3)CC1)N=C[C@@H]1CCCN1C2=O", "-70.2% (active)"],
  ["O=C(N/N=C/c1cc(Cl)ccc1O)c1ccccc1Nc1ccnc(C(F)(F)F)c1", "59.1% (inactive)"],
  ["Cc1cn(-c2cc(NC(=O)c3cncc(C#Cc4c(N)ncc5ccc(F)cc45)c3)cc(C(F)(F)F)c2)cn1", "42.4% (inactive)"],
  ["CNC1=C([N+](=O)[O-])C(c2ccc(OC)cc2)C(C#N)=C(c2cccs2)O1 (stereo not drawn)", "122% (inactive)"],
  ["CCS/C(Nc1ccccc1)=C(\\C#N)C(=O)Nc1ccc(OC)cc1", "58.9% (inactive)"],
  ["COc1cccc(CNc2c3ccccc3nc3ccccc23)c1", "81.2% (inactive)"],
  ["C/C(=N\\O)[C@@H]1CC[C@]2(CO)CC[C@]3(C)[C@H](CC[C@@H]4[C@@]5(C)CCCNC(C)(C)[C@@H]5CC[C@]43C)[C@@H]12", "93.2% (inactive)"],
  ["CCN1C(=O)N(CC)C2C1NC(=S)N2/N=C/c1ccc(C(F)(F)F)cc1 (stereo not drawn)", "76.3% (inactive)"],
  ["NC1(CO)COC(c2ccccc2)OC1 (stereo not drawn)", "118% (inactive)"],
  ["COc1ccc(/C=C(/C(=O)n2cnnn2)c2cc(OC)c(OC)c(OC)c2)cc1", "43.8% (inactive)"],
  ["[2H]C([2H])([2H])Oc1ccc(F)cc1/C=C/C(=O)/C=C(/C=C/c1cc(F)ccc1OC([2H])([2H])[2H])OB(F)F", "94.2% (inactive)"],
  ["N#CC1CCc2c(c(-c3ccc4nc(N)sc4c3)nc3ccc4[nH]ncc4c23)C1 (stereo not drawn)", "54.9% (inactive)"],
  ["N#C/C(=C\\c1ccc([N+](=O)[O-])cc1)n1nnc2cc(F)c(F)cc21", "101% (inactive)"],
  ["C=CC(=O)Nc1ccc(Nc2nccc(-c3ccc(N4CCCC4)c(C#N)c3)n2)cc1", "-46.1% (active)"],
  ["Cc1ccc2c(-c3nnc(N)s3)cc(=O)oc2c1C", "102% (inactive)"],
  ["COc1ccc(N2CCC(=S)NC2=S)cc1", "113% (inactive)"],
  ["CN(CCCNC(=O)Cc1ccc2ccc3cccc4ccc1c2c34)CCCNc1cc(-c2ccc3ccccc3c2)nc2ccccc12", "-85.7% (active)"],
  ["CCCCCCCCCCCCCOC(=O)c1c(C)[nH]c(/C=C2\\N=C(c3ccc[nH]3)C=C2OC)c1C", "30.2% (inactive)"],
  ["CO[C@H](C(=O)[C@@H](O)[C@@H](C)O)[C@@H]1Cc2cc3cc(O[C@H]4C[C@@H](O[C@H]5C[C@@H](O)[C@H](O)C(C)O5)[C@H](O)C(C)(O)O4)cc(O)c3c(O)c2C(=O)[C@H]1O[C@H]1C[C@@H](O[C@H]2C[C@@H](O[C@H]3C[C@@H](OC)[C@H](O)C(C)O3)[C@@H](O)C(C)O2)[C@H](O)C(C)O1 (stereo partly drawn)", "3.39% (active)"],
  ["CN1CCN(c2ccc(NC(=O)c3cncnc3Nc3ccc(OCc4cccc(F)c4)c(Cl)c3)cc2)CC1", "81.1% (inactive)"],
  ["CNC(=O)c1cc(Oc2ccc3c(c2)sc2nc(-c4ccc(OC)cc4)cn23)ccn1", "67.9% (inactive)"],
  ["COc1cccc(/C=C/C(=O)c2cc3c(N)c(C(=O)Nc4cccc5ccccc45)sc3nc2C)c1", "39.2% (inactive)"],
  ["O=S1(=O)C=C(c2ccccc2)C(c2ccccc2)=C1", "17.9% (inactive)"],
  ["COC(=O)c1ccc(NC(=O)Nc2ccc(C(=O)OC)cc2)cc1", "102% (inactive)"],
  ["COc1ccc2c(c1)c(/C(O)=C1\\COC(=O)C1=O)cn2Cc1ccc(F)cc1", "105% (inactive)"],
  ["Nn1c(=O)c(=O)[nH]c2c(cnn2-c2ccccc2)c1=O", "113% (inactive)"],
  ["COc1cc2c(c(OC)c1OC)C(=O)CC(c1cccc(NC(=O)c3ccc(C#N)cc3)c1)O2 (stereo not drawn)", "90.6% (inactive)"],
  ["CN1CCN(C(=O)[C@@]2(C)CC[C@]3(C)CC[C@]4(C)C(=CC[C@@H]5[C@@]6(C)CCC(=O)NC(C)(C)[C@@H]6CC[C@]54C)[C@@H]3C2)CC1", "-6.92% (active)"],
  ["O=C(NC(Cc1nnc2n(Cc3ccccc3)c(=O)c3c4c(sc3n12)CCCC4)c1ccccc1)c1ccccc1 (stereo not drawn)", "110% (inactive)"],
  ["c1nc2ccc(-c3cc4ccc5[nH]ncc5c4c4c3CCCC4)cc2[nH]1", "41.7% (inactive)"],
  ["Cc1ccc(C(=O)c2ccc(CC(=O)NN3C(=O)c4ccccc4C3=O)n2C)cc1", "103% (inactive)"],
  ["CCN1C(=O)N(CC)C2Nn3c(s/c(=C\\c4ccccc4Br)c3=O)=NC21 (stereo not drawn)", "42.1% (inactive)"],
  ["C=CCC(CCCC)(C(=O)OCC)C(=O)OCC", "115% (inactive)"],
  ["Cc1ccc(N2C(=O)CCC2=O)cc1", "105% (inactive)"],
  ["CC1=CC(c2ccco2)=C2C(N)=NNC2N1 (stereo not drawn)", "96.5% (inactive)"],
  ["CC(=O)c1ccc(Nc2nccc(-c3ccc4ccccc4c3)n2)cc1", "107% (inactive)"],
  ["C=C1C(=O)O[C@H]2[C@H]1CC/C(COC(=O)/C=C\\C(=O)NCc1ccc(Cn3c(=O)sn(CCCCC)c3=O)cc1)=C\\CC[C@@]1(C)O[C@@H]21", "91.1% (inactive)"],
  ["O=C(CC(=O)Nc1cccc(C(=O)O)c1)Nc1cccc(C(=O)O)c1", "100% (inactive)"]
]}

====

Tested on: SF-295 CNS
Experiment: NCI-60 one-dose screen, 48 h (100 = growth as untreated, 0 = no growth, -100 = all killed)
Conditions: 10 µM unless noted
This is part of a sample that, as a whole, favours compounds with a hit. Of some 83,000 tested, about 20% had one in any assay. Activity calls are given as the source filed them. The calls were made as follows: active = growth percent below 10; inactive = the rest.
measured metric: growth

{"columns": ["test smiles", "study target", "measured metric", "obs value"],
 "data": [
  ["C/C(Cc1ccc(Cl)cc1)=C(\\c1ccc(OCCCN(C)C)cc1)c1ccc(OC(=O)Cc2ccccc2)cc1", "SF-295 CNS", "growth", "100% (inactive)"],
  ["Nn1c(=O)c(=O)[nH]c2c(cnn2-c2ccccc2)c1=O", "SF-295 CNS", "growth", "102% (inactive)"],
  ["CN(CCC(=O)c1ccccc1)CCC(=O)c1ccccc1", "SF-295 CNS", "growth", "108% (inactive)"],
  ["COc1ccc(/C(C)=C(/c2ccc(OCCCN(C)C)cc2)c2ccc(OC(=O)c3ccccc3)cc2)cc1", "SF-295 CNS", "growth", "89.8% (inactive)"],
  ["CN(C)CCN1C(=O)c2cccc3c(/C=C/CN4C(=O)c5cccc6cccc(c56)C4=O)ccc(c23)C1=O", "SF-295 CNS", "growth", "106% (inactive)"],
  ["O=C1c2cccc3cccc(c23)C(=O)N1C/C=C/c1ccc2c3c(cccc13)C(=O)N(CCO)C2=O", "SF-295 CNS", "growth", "76.5% (inactive)"],
  ["C=C1CC[C@@H]2C(C)(C)[C@@H](O)CC[C@@]2(C)[C@@H]1COc1ccc2ccc(=O)oc2c1", "SF-295 CNS", "growth", "62.5% (inactive)"],
  ["CCOC(=O)/C=C1\\S/C(=N\\Nc2cc(=O)[nH]c3ccccc23)N(c2ccccc2)C1=O", "SF-295 CNS", "growth", "103% (inactive)"],
  ["CCN(CC)CCN1C(=O)c2c(c(C)c3c(oc4ccc(O)cc43)c2C)C1=O", "SF-295 CNS", "growth", "89.7% (inactive)"]
]}

====

System: HOP-62 NSCLC
Experiment: NCI-60 one-dose screen, 48 h (100 = growth as untreated, 0 = no growth, -100 = all killed)
Conditions: 10 µM unless noted
About 83,000 compounds went through this panel and 20% of them were active in at least one assay; those are over-represented in the sample as a whole.
Item-by-item account of growth
measured metric: growth (%)

{"columns": ["compound", "study target", "measured metric", "unit annotation", "obs value"],
 "data": [
  ["COc1cc2nc3sc(C(=O)Nc4ccc(C(=O)OC(C)C)cc4)c(C(=O)Nc4ccc(Cl)cc4C)n3c(=O)c2cc1OC", "HOP-62 NSCLC", "growth", "%", 67.2],
  ["CCN(CC)CCN1C(=O)c2c(c(C)c3c(oc4ccc(O)cc43)c2C)C1=O", "HOP-62 NSCLC", "growth", "%", 80.7],
  ["Nc1[nH]n2cc(-c3ccc(F)cc3)nc2c1N=Nc1ccc(S(N)(=O)=O)cc1", "HOP-62 NSCLC", "growth", "%", 90.7],
  ["CNC1=CC(=O)c2c(C(=O)OC)c(C)[n+]([O-])c(C)c2C1=O", "HOP-62 NSCLC", "growth", "%", 97.9],
  ["CN(CCC(=O)c1ccccc1)CCC(=O)c1ccccc1", "HOP-62 NSCLC", "growth", "%", 100],
  ["Cc1cc(Nc2ccc(C(=O)N3CCCC3)cc2)nc(NCCCNc2ccnc3cc(Cl)ccc23)n1", "HOP-62 NSCLC", "growth", "%", 81.2],
  ["CCN(CC)c1ccc(/C=N/NC(=O)Cc2ccc(Nc3ccnc(C(F)(F)F)c3)cc2)c(O)c1", "HOP-62 NSCLC", "growth", "%", 24.5],
  ["CCN1C(=O)N(CC)C2C1N=C(SCc1ccc(Cl)cc1)N2/N=C/C=C/c1ccccc1OC (centres undefined)", "HOP-62 NSCLC", "growth", "%", 70],
  ["CN(C)CCCNC(=O)c1cncnc1Nc1ccc(OCc2cccc(F)c2)c(Cl)c1", "HOP-62 NSCLC", "growth", "%", -56]
]}
